# System name: Hyaluronidase (Bos taurus) (UniProt Q8SQG8+Q5E985)
# Test details: Inhibition of bovine testes hyaluronidase at 400 uM after 30 mins at pH 5 by turbidimetric analysis
# Assay type: protein assay
Activity calls are given as the source filed them. The calls are words filed in the database; no cut-off is given here.
Test readout: inhibition

Here is how some compounds turned out for inhibition.
Compound: CCCCCCCCCCCCCCCC(=O)OC[C@H](O)[C@H]1OC(=O)C(O)=C1O [ASCORBYL PALMITATE]
inhibition: inactive

Compound: CC(=O)n1c(=S)oc2ccccc21
inhibition: inactive

Compound: O=C1O[C@H]([C@@H](O)CO)C(O)=C1O
inhibition: inactive

Compound: COC(=O)c1ccc2oc(=S)[nH]c2c1
inhibition: inactive

Compound: CCn1c(S)nc2ccccc21
inhibition: inactive

We now examine a further compound.
Qu. Requested field: inhibition. Item: COC(=O)c1ccc2oc(=S)n(C(=O)CCc3ccccc3)c2c1
Ans. inactive

###

# Test details: Inhibition of Streptococcus agalactiae hyaluronidase
Test readout: pIC50
Hey, just a heads up that pIC50 is the negative log base 10 of the concentration in molar.

Qu. Name the recorded pIC50 for CC1(C)[C@@H](O)CC[C@]2(C)[C@H]3C(=O)C=C4[C@@H]5C[C@@](C)(C(=O)O)CC[C@]5(C)CC[C@@]4(C)[C@]3(C)CC[C@@H]12 .
Ans. 4.22

###

# Test details: Inhibition of Streptococcus agalactiae 4755 hyaluronidase at pH 7.4 after 3 hrs by turbidimetric analysis
I'd be grateful if you could share measured pIC50 for these entries.
Units for pIC50: none; it is -log10 of a concentration expressed in mol/L.

Qu. Look up pIC50 for this compound: COC(=O)c1ccc2oc(=S)n(C(=O)CCc3ccccc3)c2c1
Ans. 4.68

Qu. Check O=C(c1cccc(Cl)c1)n1c(=S)[nH]c2ccccc21 too.
Ans. 4.15

Qu. Continue with O=C(Cc1ccccc1)n1c(=S)oc2ccccc21
Ans. 4.16

Qu. Request: CC(=O)n1c(=S)oc2ccccc21
Ans. 4.38

Qu. What do you have for CCCCCCCCCCCCCCCC(=O)n1c(=S)oc2ccccc21 ?
Ans. 4.77

Qu. Then what about the compound O=C(OCc1ccccc1)n1c(=S)oc2ccccc21 ?
Ans. 3.25

Qu. Okay, and Sc1nc2ccccc2o1 ?
Ans. 2.59

###

# System name: Hyaluronidase (Bos taurus) (UniProt Q8SQG8+Q5E985)
# Test details: Inhibition of bovine testes hyaluronidase at 460 uM after 30 mins at pH 5 by turbidimetric analysis
# Format: protein assay
Calls of active or inactive are those of the source. No cut-off for these calls is given here.
Test readout: inhibition

Mol: CCCCCC(=O)n1c(=S)[nH]c2ccccc21
inhibition: inactive
//
Mol: COC(=O)c1ccc2oc(=S)n(C(=O)CCc3ccccc3)c2c1
inhibition: inactive
//
Mol: O=C(OCc1ccccc1)n1c(=S)oc2ccccc21
inhibition: inactive
//
Mol: CCn1c(=S)oc2ccccc21
inhibition: inactive
//
Mol: CCCCCCCCCCCCCCCC(=O)n1c(=S)oc2ccccc21
inhibition: inactive

Qu. Item under review: O=C(c1cccc(Cl)c1)n1c(=S)[nH]c2ccccc21 . Reported inhibition?
Ans. inactive

Qu. What do we get for CCC(=O)n1c(=S)[nH]c2ccccc21 ?
Ans. inactive

###

# Test details: Inhibition of Streptococcus agalactiae 4755 hyaluronidase at pH 7.4
Simple rule here: IC50 less than 20 µM is Yes, otherwise No.

Qu. Lab note: IC50 threshold 20 µM. Does this compound come in strictly under it? CC(=O)n1c(=S)n(C(C)=O)c2ccccc21
Ans. Yes

Qu. Also check Cc1c(-c2ccc(O)cc2)[nH]c2ccc(O)cc12
Ans. No

Qu. Now try CCCCCCCCCCn1c(-c2ccc(OS(N)(=O)=O)cc2)cc2ccc(OS(N)(=O)=O)cc21 .
Ans. Yes

Qu. Moving on to the next compound: CCCCCCCn1c(-c2ccc(O)cc2)c(C)c2cc(O)ccc21
Ans. Yes

Qu. Field entry: CCCn1c(-c2ccc(O)cc2)c(C)c2cc(O)ccc21
Ans. No

Qu. Try Cc1c(-c2ccc(O)cc2)n(C)c2ccc(O)cc12 next.
Ans. No

Qu. Request: CCCCCn1c(-c2ccc(O)cc2)c(C)c2cc(O)ccc21
Ans. No

###

# System name: Hyaluronidase (Bos taurus) (UniProt Q8SQG8+Q5E985)
# Test details: Inhibition of bovine testes hyaluronidase at 130 uM after 30 mins at pH 5 by turbidimetric analysis
# Type: protein assay
Activity calls are given as the source filed them. The rule behind the calls is not given here.
Test readout: inhibition

Solved entries (count: 8):
Molecule: O=C(OCc1ccccc1)n1c(=S)oc2ccccc21
System name: Hyaluronidase (Bos taurus) (UniProt Q8SQG8+Q5E985)
inhibition: inactive

Molecule: O=C(Cc1ccccc1)n1c(=S)oc2ccccc21
System name: Hyaluronidase (Bos taurus) (UniProt Q8SQG8+Q5E985)
inhibition: inactive

Molecule: CCC(=O)n1c(=S)[nH]c2ccccc21
System name: Hyaluronidase (Bos taurus) (UniProt Q8SQG8+Q5E985)
inhibition: inactive

Molecule: O=C(COc1ccccc1)n1c(=S)oc2ccccc21
System name: Hyaluronidase (Bos taurus) (UniProt Q8SQG8+Q5E985)
inhibition: inactive

Molecule: O=C(CCC1CCCCC1)n1c(=S)oc2ccccc21
System name: Hyaluronidase (Bos taurus) (UniProt Q8SQG8+Q5E985)
inhibition: inactive

Molecule: O=C(CCc1ccccc1)n1c(=S)oc2ccccc21
System name: Hyaluronidase (Bos taurus) (UniProt Q8SQG8+Q5E985)
inhibition: inactive

Molecule: CC(=O)n1c(=S)oc2ccccc21
System name: Hyaluronidase (Bos taurus) (UniProt Q8SQG8+Q5E985)
inhibition: inactive

Molecule: O=C(/C=C/c1ccccc1)n1c(=S)oc2ccccc21
System name: Hyaluronidase (Bos taurus) (UniProt Q8SQG8+Q5E985)
inhibition: inactive

Qu. Look up inhibition for this molecule: CC(=O)n1c(=S)[nH]c2ccccc21
Ans. inactive

Qu. # repeat for CCn1c(=S)oc2ccccc21
Ans. inactive

###

# Test details: Aqueous solubility of the compound in water
# Format: physicochemical
Test readout: solubility (µM)
Lab book: enter the figure in µM, no units written.

Qu. Data request, read-out solubility, for COC(=O)c1ccc2oc(=S)n(C(=O)CCc3ccccc3)c2c1
Ans. 200

Qu. Also, CC(=O)n1c(=S)[nH]c2ccccc21 please.
Ans. 460

Qu. Continue with O=C(c1cccc(Cl)c1)n1c(=S)[nH]c2ccccc21
Ans. 400

Qu. Next record, please: CC(=O)n1c(=O)n(C(C)=O)c2ccccc21
Ans. 200

Qu. # repeat for CCn1c(=S)n(C(C)=O)c2ccccc21
Ans. 380

Qu. Another compound to check: CCCCCCCCCCCCCCCC(=O)n1c(=S)oc2ccccc21
Ans. 63

Qu. Also check O=C(CCc1ccccc1)n1c(=S)[nH]c2ccccc21
Ans. 100

###

For each entry below, report its pIC50 value.
# Test details: Inhibition of Streptococcus agalactiae 4755 hyaluronidase at pH 7.4 after 3 hrs by turbidimetric analysis
Scale: pIC50 equals -log10([C]), with [C] in mol/L.

Qu. Item CCC(=O)n1c(=S)[nH]c2ccccc21 has what recorded pIC50?
Ans. 4.59

Qu. # iterate: CCC(=O)n1c(=S)oc2ccccc21
Ans. 4.32

Qu. Ok, now CCCCCCCCCC(=O)n1c(=S)oc2ccccc21
Ans. 4.60

Qu. Next entry: O=C(CCc1ccccc1)n1c(=S)[nH]c2ccccc21
Ans. 4.54

Qu. Ok, now Sc1nc2ccccc2[nH]1
Ans. 2.73

Qu. Record: CC(=O)n1c(=O)oc2ccccc21
Ans. 2.83

Qu. Record: CCCCCC(=O)n1c(=S)oc2ccccc21
Ans. 4.54

Qu. O=C(CCCc1ccccc1)n1c(=S)oc2ccccc21 , same question.
Ans. 4.72
